- Tested on: NCI-H23 lung
- procedureText: NCI-60 one-dose screen, 48 h (100 = growth as untreated, 0 = no growth, -100 = all killed)
- conditionContext: 10 µM unless noted
This is part of a sample that, as a whole, favours compounds with a hit. Of some 83,000 tested, about 20% had one in any assay.
experimentalReadout: growth (%)
Numbers only, in %.

                                smilesentry  experimentalreadout   val
0                  O=C(CCl)c1ccc2c(c1)CCCC2               growth   105
1                Brc1ccc(-c2nc3ccccc3s2)cc1               growth  92.4
2  CCNc1nnc(COc2ccc(CNC(=O)CCCC/C=C/C(C)C)cc2OC)o1               growth  93.7

For every item in the list below, what is its measured growth?
1. O=S(=O)(O)c1ccc2c(c1)Sc1cc(S(=O)(=O)O)ccc1O2
2. c1ccc(Nc2ncc3c(n2)-c2cccn2CC3)cc1
3. C#CCCCCCCC[C@@H]1OC(=O)[C@H]([C@@H](C)CC)NC(=O)[C@@H]([C@@H](C)CC)NC(=O)CC(=O)[C@@H]1C

Result string:
1: 109; 2: 98.7; 3: 99.2
